Target: Streptavidin (Streptomyces avidinii) (UniProt P22629)
Sequence (P22629 whole entry, looked up): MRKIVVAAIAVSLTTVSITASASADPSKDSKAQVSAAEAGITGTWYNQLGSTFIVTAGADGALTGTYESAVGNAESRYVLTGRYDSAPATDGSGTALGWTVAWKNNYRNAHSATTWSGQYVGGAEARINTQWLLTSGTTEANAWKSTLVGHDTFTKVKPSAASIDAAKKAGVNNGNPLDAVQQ
Experiment: streptavidin binders on small-molecule microarray, primary screen, artefact control for SMM compound annotation, biophysical, 635/667 nm fluorescence (AID 1147);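 further: signal reflects streptavidin binding to arrayed compounds as a control protein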
Details: streptavidin binding, higher = more signal
Output 1.0 for composite z-score not less than -0.03; output 0.0 otherwise.

Example entries begin here.
C#CCCCON=C1C[C@@H](O)[C@@H](O)[C@@H]2[C@@H]3C(=O)N(c4cccc(Oc5ccccc5)c4)C(=O)[C@@H]3CC[C@@H]12 | 1.0
C=C(/C(=C/C[C@@H](OC(=O)c1ccncc1)c1ccc(OCCO)cc1)c1cnc2ccccc2c1)C(C)C | 1.0
CO[C@@H]1COC(=O)CC=C[C@@H](C)[C@@H]2C=C[C@H](O)[C@@H](COC(=O)[C@H](C)NC(=O)CC=C[C@H]1C)O2 | 0.0
O=C1[C@H]2[C@H]3[C@H](O)[C@H](O)CC(=NOCc4ccccc4)[C@@H]3CC[C@H]2C(=O)N1Cc1ccccc1 | 1.0
CCN(CC)c1ccc(N2CC=CC34O[C@@H]5/C=C\CCC(C)OC(=O)C5[C@H]3C(=O)N(CCCO)[C@@H]4C2=O)cc1 (stereo not given in full) | 0.0

### Prompt Textbook exercise: given the entry `C#CCCCON=C1C[C@@H](O)[C@@H](O)[C@@H]2[C@@H]3C(=O)N([C@@H](C)c4ccccc4)C(=O)[C@@H]3CC[C@H]12` , state whether its composite z-score is greater than or equal to -0.03.
### Response 1.0

### Prompt Textbook exercise: given the entry `Cc1ccc(S[C@]2(C(=O)O)CC(=O)N(Cc3ccccc3)[C@@H]2c2ccc(CO)cc2I)cc1` , state whether its composite z-score is greater than or equal to -0.03.
### Response 1.0

### Prompt Textbook exercise: given the entry `C=CC[C@@H]1C=C[C@H](ON=C(C)CCN2CCc3nc(CC)c(CC)cc3C2)[C@@H](CO)O1` , state whether its composite z-score is greater than or equal to -0.03.
### Response 1.0

### Prompt Textbook exercise: given the entry N#Cc1ccc(NN2C(C(O)c3cccc4ccccc34)C=CC3C(=O)N(c4ccccc4)C(=O)C32)cc1 (stereo not given) , state whether its composite z-score is greater than or equal to -0.03.
### Response 1.0

### Prompt Textbook exercise: given the entry `CCN1C(=O)[C@H]2[C@H]3[C@H](O)[C@H](O)CC(=NOCC=C(C)CCC=C(C)C)[C@H]3CC[C@H]2C1=O` , state whether its composite z-score is greater than or equal to -0.03.
### Response 0.0

### Prompt Textbook exercise: given the entry `COCC1=C2[C@@H](CCc3ccccc3)OB(O)C[C@@H]2n2c(=O)n(-c3ccccc3)c(=O)n2C1` , state whether its composite z-score is greater than or equal to -0.03.
### Response 0.0

### Prompt Textbook exercise: given the entry `CC(C)[C@@H](OCc1ccccc1)[C@H](C)C=NO[C@H](C)c1cn([C@H](CO)Cc2ccccc2)nn1` , state whether its composite z-score is greater than or equal to -0.03.
### Response 1.0

### Prompt Textbook exercise: given the entry `COc1ccc(CCNC(=O)[C@@H]2c3ccccc3C(=O)N(c3ccc(C)cn3)[C@H]2c2ccc(CO)cc2)cc1` , state whether its composite z-score is greater than or equal to -0.03.
### Response 0.0

### Prompt Textbook exercise: given the entry `CCN1C(=O)[C@H]2[C@H]3[C@H](O)C=CC(=O)[C@@H]3CC[C@H]2C1=O` , state whether its composite z-score is greater than or equal to -0.03.
### Response 1.0

### Prompt Textbook exercise: given the entry O=C1CCCC2OC12C(O)CCc1ccccc1 (stereo not given) , state whether its composite z-score is greater than or equal to -0.03.
### Response 1.0

### Prompt Textbook exercise: given the entry `CO[C@H]1COC(=O)CC=C[C@H](C)[C@@H](NS(=O)(=O)c2ccc(C)cc2)COC(=O)CC=C[C@@H]1C` , state whether its composite z-score is greater than or equal to -0.03.
### Response 0.0

### Prompt Textbook exercise: given the entry `CCc1cccc(NC(=O)O[C@H]2[C@H](OC(=O)Nc3ccc4c(c3)OCO4)[C@@H](OC(=O)Nc3ccc4c(c3)OCO4)[C@@H](OC)O[C@@H]2CO)c1` , state whether its composite z-score is greater than or equal to -0.03.
### Response 1.0

### Prompt Textbook exercise: given the entry `CO[C@@H]1COC(=O)CC=C[C@@H](C)[C@H](OC)COC(=O)[C@H](COCc2ccccc2)NC(=O)CC=C[C@H]1C` , state whether its composite z-score is greater than or equal to -0.03.
### Response 0.0

### Prompt Textbook exercise: given the entry `Cc1ccc(S[C@]2(C(=O)NCC(F)(F)F)CC(=O)N(Cc3ccccc3Cl)[C@@H]2c2ccc(CO)cc2I)cc1` , state whether its composite z-score is greater than or equal to -0.03.
### Response 0.0

### Prompt Textbook exercise: given the entry `COC(=O)C1=C(C)[C@@H](O)[C@@H](C)[C@H](c2c(OC)c(OC)c(C)c(OC)c2OC)O1` , state whether its composite z-score is greater than or equal to -0.03.
### Response 1.0

### Prompt Textbook exercise: given the entry `COCCCNC(=O)[C@@]1(Sc2ccc(C)cc2)CC(=O)N(Cc2ccccc2)[C@@H]1c1ccc(CO)cc1I` , state whether its composite z-score is greater than or equal to -0.03.
### Response 0.0

====

Target: Fibroblast growth factor 10 (Homo sapiens)
Test: FGF10 binders on small-molecule microarrays, primary screen, biochemical, small-molecule microarray, 635 nm fluorescence (AID 1102)
Conditions: FGF10 binding, fluorescence 635 nm, higher = more signal
Output yes for composite z-score not less than 0.2; output no otherwise.

Example entries begin here.
COC(=O)CC=C[C@@H](C)[C@H](OC)c1ccccc1Br | no
[N-]=[N+]=Nc1ccccc1C[C@@]1(C(N)=O)N=C(c2ccc(OCCCO)cc2)O[C@@H]1c1ccccc1 | no
COC(=O)[C@H](C)NC(=O)CCC1CC(OC(=O)NCCc2ccc(F)cc2)CC2(CCCC(COC(=O)NCC(c3ccccc3)c3ccccc3)O2)O1 (stereo not given in full) | yes
CN(C)CCCNC(=O)[C@@H]1c2ccccc2C(=O)N(Cc2ccccc2)[C@H]1c1ccc(CO)cc1 | no
COC(=O)C1=C(C)[C@@H](O)[C@@H](C)[C@H](c2c(OC)c(OC)c(C)c(OC)c2OC)O1 | yes
CCOC(=O)NN=C1C[C@@H](O)[C@@H](O)[C@@H]2[C@@H]3C(=O)N(C4CCCCC4)C(=O)[C@@H]3CC[C@H]12 | yes
C=CC[C@@H]1C=C[C@H](ON=C2c3cc(OC)ccc3O[C@H](c3cccc(OC)c3)[C@H]2O)[C@@H](CO)O1 | no
CC(C)(C)N1C(=O)[C@H]2[C@H]3[C@H](O)[C@H](O)CC(=NOCc4ccccc4)[C@@H]3CC[C@H]2C1=O | yes
C[C@@H](c1ccccc1)N1C(=O)[C@H]2[C@H]3[C@H](O)[C@H](O)CC(=NNC(=O)OCc4ccccc4)[C@H]3CC[C@H]2C1=O | no
CO[C@@H]1COC(=O)CC=C[C@@H](C)[C@@H]2C=C[C@H](O)[C@@H](COC(=O)[C@H](C)NC(=O)CC=C[C@H]1C)O2 | yes

### Prompt Textbook exercise: given the entry `O=C1[C@H]2[C@H]3[C@H](O)[C@H](O)CC(=NO[C@@H]4O[C@H](CO)[C@@H](O)[C@H](O)[C@H]4O)[C@@H]3CC[C@H]2C(=O)N1Cc1ccc2c(c1)OCO2` , state whether its composite z-score is greater than or equal to 0.2.
### Response yes

### Prompt Textbook exercise: given the entry `CCCC=C(CCC)[C@@H](NC(=O)c1ccc(-c2ccccc2)cc1)c1ccc(C(=O)OC)cc1` , state whether its composite z-score is greater than or equal to 0.2.
### Response no

### Prompt Textbook exercise: given the entry `CCN1C(=O)[C@H]2[C@H]3[C@H](O)[C@H](O)CC(=NOCc4ccccc4)[C@@H]3CC[C@H]2C1=O` , state whether its composite z-score is greater than or equal to 0.2.
### Response yes

### Prompt Textbook exercise: given the entry `COc1ccccc1CN1C(=O)c2ccccc2[C@@]2(Cc3ccccc3N(C(C)C)C2=O)[C@@H]1c1ccc(CO)cc1` , state whether its composite z-score is greater than or equal to 0.2.
### Response no

### Prompt Textbook exercise: given the entry CC1(C)OCC(C(O)C2=CCCCC2=O)CO1 (stereo not given) , state whether its composite z-score is greater than or equal to 0.2.
### Response yes

====

Target: Follistatin-related protein 3 (Homo sapiens)
Experiment: FSTL3 binders on small-molecule microarrays, primary screen, biochemical, small-molecule microarray, 635 nm fluorescence (AID 1105);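 further: score merges emission near 667 nm and signal to noise per printed spot across three slides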
Details: FSTL3 binding, higher = more signal
Reported Property: composite z-score
Please respond with just the number, no unit label.

C[C@@H](c1ccccc1)N1C(=O)[C@H]2[C@H]3[C@H](O)[C@H](O)CC(=NOC[C@@H](O)COCc4ccco4)[C@@H]3CC[C@H]2C1=O | -1.31
CCCCCN1CC=CC23O[C@@H]4C=CCOC(=O)[C@@H]4[C@H]2C(=O)N(CCCCCCO)[C@@H]3C1=O (some centres not stated) | -1.81
CC(CCC(=O)OC[C@H]1O[C@H](C#Cc2ccccc2)C=C[C@@H]1Oc1ccc(C)cc1)=NOC[C@@H](O)[C@H]1O[C@@H]2OC(C)(C)O[C@@H]2[C@H]1O | -0.638

### Prompt Item `O=C(CS)NCCCCCNC(=O)[C@@H]1C[C@@H]2C(=O)N[C@@H](Cc3ccccc3)C(=O)N2[C@@H]1c1ccc(O)cc1` : provide composite z-score
### Response 0.265

### Prompt Item `CCOC(=O)NN=C1C[C@@H](O)[C@@H](O)[C@@H]2[C@@H]3C(=O)N(C[C@@H]4CCCO4)C(=O)[C@@H]3CC[C@@H]12` : provide composite z-score
### Response 0.342

### Prompt Item `CCOC(=O)CCN1C(=O)[C@H]2[C@H]3[C@H](O)[C@H](O)CC(=NOC[C@@H](O)COCc4ccco4)[C@H]3CC[C@H]2C1=O` : provide composite z-score
### Response 0.608

### Prompt Item `COC(=O)CC=C[C@@H](C)[C@@H](C=NO[C@H](C)c1cn([C@@H]2COC[C@H]2O)nn1)OC` : provide composite z-score
### Response 1.06
